Target: T1, angiopoietin-2 (Ang2) (human, UniProt O15123 68-496, limits assumed, biotinylated in Examples 22-24 (R&D cat#BT633))
T1 construct: also called rhAng2; recombinant Ang2
T1 sequence (looked up): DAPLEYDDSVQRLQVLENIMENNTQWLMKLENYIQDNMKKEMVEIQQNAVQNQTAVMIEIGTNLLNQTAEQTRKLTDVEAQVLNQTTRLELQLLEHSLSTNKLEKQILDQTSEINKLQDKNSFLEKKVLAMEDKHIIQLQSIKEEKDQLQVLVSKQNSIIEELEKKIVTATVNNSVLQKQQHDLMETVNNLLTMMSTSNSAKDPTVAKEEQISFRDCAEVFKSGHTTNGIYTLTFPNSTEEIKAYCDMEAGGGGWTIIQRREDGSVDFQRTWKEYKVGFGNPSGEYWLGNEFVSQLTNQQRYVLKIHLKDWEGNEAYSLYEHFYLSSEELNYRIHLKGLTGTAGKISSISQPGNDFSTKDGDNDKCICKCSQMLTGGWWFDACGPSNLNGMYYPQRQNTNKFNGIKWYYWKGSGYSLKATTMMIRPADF
Test: MBP fusion protein tested for binding to Ang2; method not restated (direct-binding ELISA in Example 19)
No end group written: not given here.
Give pEC50 for every item shown.
# pEC50: negative log10 of molar concentration; output just the value

Input line: Item under review: KSLSLSPGSGGGSMGAQTNFMPMDNEELLLYEQFI (other, not shown: large carriers; small tags and cut ends, not fully specified (N-terminus); also: fused to maltose binding protein carrier at N-terminus) [LM32 variant SEQ ID NO:143 expressed as MBP fusion protein] . Reported pEC50?
Output line: 7.68

Input line: Item under review: KSLSLSPGSGGGSMGAQTNFMPMDNDEALLYEQFIYQQGLE (other, not shown: large carriers; small tags and cut ends, not fully specified (N-terminus); also: fused to maltose binding protein carrier at N-terminus) [LM32 variant SEQ ID NO:94 expressed as MBP fusion protein] . Reported pEC50?
Output line: 9.41

Input line: Item under review: KSLSLSPGSGGGSMGAQTNFMPMDNDEALLYEQFILQQGLE (other, not shown: large carriers; small tags and cut ends, not fully specified (N-terminus); also: fused to maltose binding protein carrier at N-terminus) [LM32 variant SEQ ID NO:90 expressed as MBP fusion protein] . Reported pEC50?
Output line: 9.74

Input line: Item under review: KSLSLSPGSGGGSMGAQTNFMPMDNDELLLYEQFI (other, not shown: large carriers; small tags and cut ends, not fully specified (N-terminus); also: fused to maltose binding protein carrier at N-terminus) [LM32 variant SEQ ID NO:142 expressed as MBP fusion protein] . Reported pEC50?
Output line: 8.97

Input line: Item under review: KSLSLSPGSGGGSMGAQTNFMPMDNDELTLYEQFILQQGLE (other, not shown: large carriers; small tags and cut ends, not fully specified (N-terminus); also: fused to maltose binding protein carrier at N-terminus) [LM32 variant SEQ ID NO:91 expressed as MBP fusion protein] . Reported pEC50?
Output line: 8.85

Input line: Item under review: KSLSLSPGSGGGSMGAQTNFMPMDNDEGLLYEEFILQQGLE (other, not shown: large carriers; small tags and cut ends, not fully specified (N-terminus); also: fused to maltose binding protein carrier at N-terminus) [LM32 variant SEQ ID NO:96 expressed as MBP fusion protein] . Reported pEC50?
Output line: 9.04

Input line: Item under review: KSLSLSPGSGGGSMGAQTNFMPMDQDELLLYEQFILQQGLE (other, not shown: large carriers; small tags and cut ends, not fully specified (N-terminus); also: fused to maltose binding protein carrier at N-terminus) [LM32 variant SEQ ID NO:99 expressed as MBP fusion protein] . Reported pEC50?
Output line: 9.42
